// values below are reported EC50
- Tested on: HBV rcDNA in HepDE19 cells
- Experimental Protocol: HepDE19 assay with bDNA quantitation of HBV rcDNA
- Format: cell-based, hepatitis B virus
- Condition: Hepatitis B virus, HepDE19, HepDE19 assay, inhibition of rcDNA formation, bDNA quantitation; read-out: DE-19bDNA EC50
Numeric only. Scale: µM

Study these solved cases before continuing.
Compound | Units | EC50
CN(C(=O)c1ccc(Oc2cccc(F)c2)cc1)[C@@H]1COCc2[nH]c(=O)c3cc(F)c(F)cc3c21 | µM | 6.9
CN(C(=O)C1Nc2ccccc2C1(C)C)C1COCc2[nH]c(=O)c3cc(F)c(F)cc3c21 (stereo not shown) | µM | 18
CN(C(=O)c1cc2cc(C(F)F)ccn2c1)[C@@H]1COCc2[nH]c(=O)c3cc(F)c(F)cc3c21 | µM | 24

Turning to the following compound.
IN: Tell me the measured EC50 of CN(C(=O)c1cccc(Oc2ccccc2)c1)[C@@H]1COCc2[nH]c(=O)c3cc(F)c(F)cc3c21 , please.
OUT: 11.2
